# Test target: FAD-linked sulfhydryl oxidase ALR (Homo sapiens)
# Assay details: ALR-catalysed DTT oxidation blockers – biochemical, H2O2 detection, HRP-luminol luminescence, single point, primary screen (AID 485317)
# Measurement conditions: purified ALR, concentration not given here
The whole screen tested about 290,000 compounds, of which about 11,000 (3.8%) were called active.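 How the source made its calls: active means mean replicate inhibition above about 79%, with every replicate also reaching it (limit read from the data); inconclusive means only one of the two criteria met; inactive means mean below limit and not every replicate reaching it.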 For the sample, actives were picked, then their nearest neighbours and some compounds at random.
Possible outcomes: t = active, f = inactive

>>> df
                                    molecule  assigned_category
 0       C=CCSc1ccc(S(=O)(=O)N2CCN(C)CC2)cn1                  f
 1  O=C(CSCC(=O)Nc1cccc([N+](=O)[O-])c1)Nc1ccccc1                  f
 2  CC(C)NC(=O)c1ccc(Sc2ccccc2)c([N+](=O)[O-])c1                  f
 3           COc1ccccc1CNC(=O)COC(=O)c1cccs1                  f
 4        O=C(CSc1nnc(Nc2ccccc2F)s1)NC1CCCC1                  f
 5  Cc1ccc(Sc2cc(C(=O)c3ccccc3C(=O)O)ccc2[N+](=O)[O-])cc1                  t
 6  O=C(c1ccc(F)c(S(=O)(=O)N2CCOCC2)c1)N(CCc1ccccc1)Cc1ccccc1                  f
 7  CC1(C)CC[C@]2(C(=O)O)CC[C@]3(C)C(=CCC4[C@@]5(C)CC[C@H](O)C(C)(C)C5[C@H](O)C[C@]43C)[C@@H]2C1 (stereo partly specified)                  f
 8  CCCc1cc(=O)[nH]c(SCC(=O)Nc2ccc(C(=O)Nc3ccccc3OC)cc2)n1                  f
 9  CCOCc1c(C(=O)N2CCN(Cc3ccc(Br)s3)CC2)oc2ccccc12                  f
10  COc1ccc(OCC(=O)NNC(=O)c2ccc(-c3ccccc3)cc2)cc1                  f
11  CN(CC(=O)NCCc1ccc(S(N)(=O)=O)cc1)CC(=O)Nc1ccc(F)c(F)c1F                  f
12  COCCCn1c(SCC(=O)Nc2oc(C)c3c(C)n[nH]c(=O)c23)nc2sc3c(c2c1=O)CCC3                  f
13  CCC1CCC/C1=N\NC(=O)c1ccc(Cl)cc1 (stereo unspecified)                  f
14  O=C(OCC(=O)N1CCc2ccccc21)c1ccc([N+](=O)[O-])cc1                  f
15     Cc1nc(NNC(=O)c2ccccc2)cc(-c2ccccc2)n1                  t
16  O=C(CSc1nc(-c2ccccc2)cs1)Nc1cccc([N+](=O)[O-])c1                  t
17      CCCN(CC1CC1)C(=O)COC(=O)c1ccc(C)cc1O                  f
18  O=C(NCc1ccncc1)c1ccc(NS(=O)(=O)c2cccc([N+](=O)[O-])c2)cc1                  f
19  CCc1nnc(NC(=O)c2cc(S(=O)(=O)N3CCCCC3)ccc2C)s1                  f
20             CSc1ccc(/C=C2\NC(=O)NC2=O)cc1                  f

* * *

# Test target: FAD-linked sulfhydryl oxidase ALR (Homo sapiens)
# Assay details: ALR-catalysed DTT oxidation blockers – biochemical, H2O2 detection, HRP-luminol luminescence, single point, primary screen (AID 485317)
# Measurement conditions: purified ALR, concentration not given here
Among all 290,000 compounds or so, about 11,000 (3.8%) were called active.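 How the source made its calls: active means mean replicate inhibition above about 79%, with every replicate also reaching it (limit read from the data); inconclusive means only one of the two criteria met; inactive means mean below limit and not every replicate reaching it.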 The list comes from a sample in which actives are over-represented; it also holds close analogues and randomly drawn compounds.
Possible outcomes: 1 (yes) = active, 0 (no) = inactive

>>> print(df.to_string())
                                   molecule  assigned_category
0  Cc1ccc(N2C(=O)C3CC3C2=O)cc1 (stereo not given)             0 (no)
1  CO/N=C(\C(=O)N[C@@H]1C(=O)N2C(C(=O)O)=C(COC(C)=O)CS[C@H]12)c1csc(N)n1 (stereo in doubt)             0 (no)
2  CC(=O)Nc1ccc(NC(=O)COC(=O)c2ccccc2C(=O)c2ccccc2)cc1             0 (no)
3  CCOC(=O)c1c(-c2ccc(-c3ccccc3)cc2)csc1NC(=O)CCC(=O)O             0 (no)
4   Cc1ccc(N2CCN(c3ccc(C)cc3)C2c2ccccn2)cc1            1 (yes)
5  Cc1cccc(NS(=O)(=O)c2ccc(C)c(C(=O)NCc3cccnc3)c2)c1             0 (no)
6  CCOC(=O)N1CCN(CC(=O)c2c(C)[nH]c3ccccc23)CC1             0 (no)
7  CC(=O)c1sc(NC(=O)CCN2C(=O)C3CC=CCC3C2=O)nc1-c1ccccc1 (stereo not given)             0 (no)
8           Cc1[nH]c2ccccc2c1C(=O)CSCC(=O)O            1 (yes)
9        CSc1ncc(Cl)c(C(=O)Nc2cc(C)ccc2C)n1             0 (no)

* * *

# Test target: FAD-linked sulfhydryl oxidase ALR (Homo sapiens)
# Assay details: ALR-catalysed DTT oxidation blockers – biochemical, H2O2 detection, HRP-luminol luminescence, single point, primary screen (AID 485317)
# Measurement conditions: purified ALR, concentration not given here
In all, about 290,000 compounds went through this assay and about 11,000 (3.8%) were called active.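 The calls were made as follows: active = mean replicate inhibition above about 79%, with every replicate also reaching it (limit read from the data); inconclusive = only one of the two criteria met; inactive = mean below limit and not every replicate reaching it.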 Shown is part of a subset that was picked to be rich in actives.
Possible outcomes: active, inactive

In [3]: df
Out[3]:
                                    compound  assigned_category
 0  COc1ccc(-c2nn(-c3ccccc3)cc2CN2CCCO2)c(F)c1             active
 1  CCN(CC)c1ccc2c(Nc3ccccc3)c(C=O)c(=O)oc2c1           inactive
 2  O=C(OCC(=O)N1CCN(c2ccccc2)CC1)c1ccc([N+](=O)[O-])s1           inactive
 3  O=C(O)c1cccc(S(=O)(=O)Nc2ccc(O)cc2Sc2nc3ccccc3s2)c1             active
 4  C[C@@H]1NC(=O)[C@@]2(C)[C@@H](c3ccccc3)[C@H]3COc4ccccc4[C@@H]3N2C1=O           inactive
 5  COc1cccc2sc3cc(NCC[C@@H]4CCCN4C)ccc3c(=O)c12           inactive
 6  CCOc1cc(/C=C/C(=O)OCC(=O)NCCN2C(=O)CSC2=O)ccc1OCC(C)C           inactive
 7     O=C1COc2ccc(C(=O)CSc3ccc(Br)cc3)cc2N1           inactive
 8  CCC(O)C1CCN(Cc2cn(-c3ccc(OC)cc3)nc2-c2cccc(F)c2)CC1 (configuration not stated)           inactive
 9              CCN(CC)c1ccc2oc(=O)c(C)nc2c1             active
10  O=C(/C=C\c1cn(-c2ccccc2)nc1-c1cccs1)N1CCOCC1           inactive
11          COc1ccccc1-c1c(C#N)c(N)nc2c1CCC2           inactive
12  Cn1c(N)c(C(=O)COC(=O)/C=C/c2cccc(C(F)(F)F)c2)c(=O)n(C)c1=O           inactive
13  COc1ccc(S(=O)(=O)Nc2ccc(O)c(Sc3nc4ccccc4s3)c2)cc1           inactive
14  COc1cccc(/C=C/C(=O)OCC(=O)N2CCN(c3ccccc3)CC2)c1           inactive
15  O=C(CNC(=O)c1n[nH]c2ccccc12)Nc1cc(Cl)ccc1Cl           inactive
16  Cc1ccc(C(=O)Oc2coc(CSc3nnc(NC(=O)c4cccs4)s3)cc2=O)cc1C           inactive
17  CCOc1cc(-c2nc3cc(C)ccn3c2NCC2CCCO2)ccc1O (configuration not stated)             active
18  COc1ccc(-c2cc(-c3ccc(N)cc3)nc(N)c2C#N)cc1OC             active
19      CCc1noc(C)c1C(=O)Nc1nc(-c2ccccc2)cs1           inactive
20  COc1cc(C(=O)NCc2ccncc2)cc(Br)c1OCc1ccccc1           inactive
21  COc1ccc(-c2nn(-c3ccccc3)cc2/C=C\C(=O)Nc2ccc(C(=O)O)cc2)cc1           inactive
